Each entry below carries its reported 8OG:A repair function score.
B1: library; numbered along this chain (parent)
chain: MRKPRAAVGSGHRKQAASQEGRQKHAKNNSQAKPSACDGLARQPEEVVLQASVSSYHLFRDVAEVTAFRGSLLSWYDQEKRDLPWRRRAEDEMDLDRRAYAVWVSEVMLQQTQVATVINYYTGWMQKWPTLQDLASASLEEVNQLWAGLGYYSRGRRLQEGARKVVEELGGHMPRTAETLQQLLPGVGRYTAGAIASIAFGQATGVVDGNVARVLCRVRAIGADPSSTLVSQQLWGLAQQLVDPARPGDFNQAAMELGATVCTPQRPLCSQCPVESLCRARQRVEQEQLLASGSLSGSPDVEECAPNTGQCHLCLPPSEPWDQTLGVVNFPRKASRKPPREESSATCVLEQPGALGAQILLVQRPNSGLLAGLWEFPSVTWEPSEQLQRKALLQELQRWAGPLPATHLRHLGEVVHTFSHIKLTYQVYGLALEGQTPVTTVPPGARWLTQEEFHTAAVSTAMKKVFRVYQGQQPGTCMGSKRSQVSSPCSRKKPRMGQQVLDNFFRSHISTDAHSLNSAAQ

variants of: B1; experiment: 8OG:A repair function score (normalized; synonymous = 0, nonsense = -1) (normalized log-likelihood score); higher = more repair activity (WT-like); conditions: with 8OG:A DNA repair reporter (GFP) in HEK-293 MUTYH KO cells;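 also: cells sorted at 72 h after reporter transfection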
Reply with just the number.

Field: example entries. Status: answers known.
variant | measurement
E375D | -0.434
D300H | -0.0192

Query: Sample `G356K` — what was its 8OG:A repair function score?
Response: -0.0901

Query: Next record, please: `M462Y`
Response: -0.369

Query: Follow-up entry: `M496Y`
Response: 0.00737

Query: What about this variant? `S294P`
Response: -0.0152

Query: Entry to check: `E451R`
Response: 0.0453

Query: Item: `G170T`
Response: -0.248

Query: Same question, `M255K` this time
Response: -1.01

Query: Field entry: `H57R`
Response: -0.473

Query: Repeat for the following variant: `A63Q`
Response: -0.105
